Method notes: growth inhibitors of H69AR lung tumor, primary screen, human, duplicate replicates (AID 580);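 further: 100% = mean luminescence of untreated wells and 0% = no signal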
Condition set: H69AR lung tumor cells viability, ATP luminescence, 72 h; at 10 µM; hits give low values
Kindly state viability for each of the entries shown.
One number for each entry, in %.

• CCc1nnc(NC(=O)CSc2nnc3ncccn23)s1 = 95.5
• CCOC(=O)N1CCC(NC(=O)C2CCC(Cn3c(=O)[nH]c4ccccc4c3=O)CC2)CC1 (stereo unspecified) = 16.8

Would you mind giving viability for every compound in the list below?
1. Cc1c(NC(=O)c2coc(=O)c(Br)c2)c(=O)n(-c2ccccc2)n1C
2. O=C(c1c(Cl)nc2sccn12)N(C(=O)c1c(Cl)nc2sccn12)c1ccc(Cl)cn1
3. CCOc1ccccc1N(C(=O)c1ccco1)C(C(=O)NC1CCCC1)c1cccnc1 (stereo unspecified)
4. Cc1nn(C)c(C)c1NC(=O)CSc1nc(Cc2ccccc2)nc2c1cnn2-c1ccccc1
5. Cc1[nH]c2c(C)cccc2c(=O)c1Br
6. O=C(C1CCCCC1)N1CC(=O)N2CCc3ccccc3C2C1 (stereo unspecified)
7. Clc1ccccc1OCCCCn1ccnc1
8. COc1ccc(-c2nc(CS(=O)CC(=O)N3CCCC3)c(C)o2)cc1 (stereo unspecified)

Out:
[1.47, 70.8, 90.5, 78.8, 91.9, 96.7, 83.7, 83.9]

In: Endpoint output: viability of `CCc1nc(SCc2cc(Cl)ccc2OC)n[nH]1` . Value?
Out: 94.7

====

Kindly state inhibition for each of the entries shown.
Method notes: growth suppression of yeast trafficking mutant, preliminary HTS, modulators of trafficking downstream of Golgi apparatus project, 1536-format plate, OD 615 nm (AID 637)
Condition set: yeast transport mutant growth, absorbance 615 nm, 18 h; hits give high values
One number for each entry, in %.

Below, each entry is followed by its recorded inhibition result.
• Cc1cc(C)n(-c2nc3c(c(=O)[nH]c(=O)n3C)n2Cc2ccc(F)cc2)n1 = -1.45
• O=C(c1ncn[nH]1)N1CCN(c2nc(-c3ccccc3)cs2)CC1 = 9.68
• CCn1c(SCc2nc(-c3cccs3)no2)nnc1-c1c[nH]c2ccccc12 = -5.67
• CC(O)Cn1cnc2c1c(=O)n(C)c(=O)n2C (stereo unspecified) = 0.17

Would you mind giving inhibition for every compound in the list below?
1. CN1CCCc2cc(C#N)c(=O)[nH]c21
2. Oc1cccc(Nc2nc(NCC3CCCO3)c3ccccc3n2)c1 (stereo unspecified)
3. COc1ccccc1CCNC(=O)C1CCCO1 (stereo unspecified)
4. COc1cc(C2C3=C(CC(C)(C)CC3=O)Nc3c2c(=O)[nH]c(=O)n3Cc2ccccc2)ccc1O (stereo unspecified)
5. CCOC(=O)N1CCN(C(=O)Nc2ccc3oc(C)nc3c2)CC1

Out:
-2.38
3.17
-11.3
3.33
0

====

Method notes: growth suppression of yeast trafficking mutant, preliminary HTS, modulators of trafficking downstream of Golgi apparatus project, 1536-format plate, OD 615 nm (AID 637)
Condition set: yeast transport mutant growth, absorbance 615 nm, 18 h; hits give high values
Assay metric: inhibition (%)
Numbers only, in %.

Below, each entry is followed by its recorded inhibition result.
- COc1cc(C2Oc3cc(C4Oc5cc(O)cc(O)c5C(=O)C4O)ccc3OC2CO)ccc1O (stereo unspecified): -3.5
- CCN1C(=O)/C(=C/N(C)c2ccccc2)OC1=S: 8.18
- CS(=O)(=O)N(CC(=O)Nc1ccc2c(c1)OCO2)Cc1ccc(Cl)cc1: 2.73
- COc1ccc(/C(O)=C2\C(=O)C(=O)N(c3cc(C)on3)C2c2ccccc2OC)cc1 (stereo unspecified): -5.09
- CCn1c(CCC(=O)Nc2nc3c(s2)CCCC3)nc2cc(S(=O)(=O)N(C)C)ccc21: -3.11
- CSc1c(C#N)c(N)c(C#N)c2c1COC(C)(C)C2: 2.1
- Cc1ccc(Nc2cc(C)nc3nnnn23)cc1: -2.06
- CCN1CCN(c2c(Cl)cccc2NC(=O)c2ccc3c(c2)OCCO3)CC1: 3
- COc1cccc(OC)c1C(=O)N1CCOCC1: -0.81
- COc1cc(S(=O)(=O)NC2CCCCC2C)ccc1Cl (stereo unspecified): 1.45

# evaluate next
In: Endpoint output: inhibition of `CC(C)(C)C(=O)NC1CCN(C(=O)N2CCCC2)CC1` . Value?
Out: 2.91

Where do the numbers come from? From PubChem BioAssay.
